// values below are reported inhibition at 100 µM
- TARGET SYSTEM: Human recombinant sEH (Homo sapiens)
- Construct: purchased Cayman Chemical (Ann Arbor, MI, USA) 10011669
- MEASUREMENT PROTOCOL: sEH assay (fluorescent substrate hydrolysis, inhibitory activity and IC50)
- Format: biochemical
- CONDITION DETAILS: compound at 100 μM; tested three times; read-out: Inhibitory Activity at 100 μM (%)
Lab book: enter the figure in %, no units written.

COc1cc(O)ccc1C(=O)/C=C/c1ccc(O)cc1 [Compound 7, 2′-methoxyisoliquiritigenin] : 85.1

Q: Quick check: inhibition at 100 µM of CC1(C)[C@@H](O[C@H]2O[C@H](C(=O)O)[C@@H](O)[C@H](O)[C@H]2O[C@@H]2O[C@H](C(=O)O)[C@@H](O)[C@H](O)[C@H]2O)CC[C@]2(C)[C@H]3C(=O)C=C4[C@@H]5C[C@@](C)(C(=O)O)CC[C@]5(C)CC[C@@]4(C)[C@]3(C)CC[C@@H]12 [Glycyrrhizin, reference compound] ?
Result: 18.4

Q: Quick check: inhibition at 100 µM of CC(C)=CCc1cc(-c2coc3cc(O)c(CC=C(C)C)c(O)c3c2=O)cc(O)c1O [Compound 11, isoangustone A] ?
Result: 68.4

====

- TARGET SYSTEM: Human recombinant sEH (Homo sapiens, UniProt P34913)
- Construct: purchased Cayman Chemical (Ann Arbor, MI, USA) 10011669
- Sequence (P34913 1-555): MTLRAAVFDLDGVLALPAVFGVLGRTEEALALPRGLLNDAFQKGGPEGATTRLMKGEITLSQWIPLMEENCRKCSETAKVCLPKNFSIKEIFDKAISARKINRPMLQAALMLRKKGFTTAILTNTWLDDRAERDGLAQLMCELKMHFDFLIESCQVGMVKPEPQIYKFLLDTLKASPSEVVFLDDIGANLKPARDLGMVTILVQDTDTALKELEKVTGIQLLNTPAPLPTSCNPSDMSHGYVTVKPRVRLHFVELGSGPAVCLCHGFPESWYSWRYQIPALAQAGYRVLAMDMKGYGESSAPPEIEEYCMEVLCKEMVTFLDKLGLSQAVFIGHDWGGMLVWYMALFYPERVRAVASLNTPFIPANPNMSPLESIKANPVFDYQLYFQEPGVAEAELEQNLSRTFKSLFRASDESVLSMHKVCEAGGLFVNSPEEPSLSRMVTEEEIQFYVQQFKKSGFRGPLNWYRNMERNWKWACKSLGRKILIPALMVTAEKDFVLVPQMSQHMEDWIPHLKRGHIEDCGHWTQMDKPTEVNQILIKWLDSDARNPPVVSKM
- MEASUREMENT PROTOCOL: sEH enzyme kinetics (Lineweaver–Burk and Dixon plots)
- Type: biochemical
- CONDITION DETAILS: Lineweaver–Burk plot
ASSAY ENDPOINT: Binding Mode

The following compounds have reported results that may help.
O=C(/C=C/c1ccc(O)cc1)c1ccc(O)cc1O [Compound 4, isoliquiritigenin] : Noncompetitive
COc1ccc(-c2coc3cc(O[C@@H]4O[C@H](CO)[C@@H](O)[C@H](O)[C@H]4O)ccc3c2=O)cc1 [Compound 8, ononin] : competitive inhibitors
COc1c(CC=C(C)C)c(O)cc2oc(=O)c(-c3ccc(O)cc3O)cc12 [Compound 10, glycycoumarin] : competitive inhibitors
O=C(/C=C/c1ccc(O[C@@H]2O[C@H](CO)[C@@H](O)[C@H](O)[C@H]2O)cc1)c1ccc(O)cc1O [Compound 5, isoliquiritin] : Noncompetitive

Q: What measured Binding Mode is associated with COc1cc(O)ccc1C(=O)/C=C/c1ccc(O)cc1 [Compound 7, 2′-methoxyisoliquiritigenin] on Human recombinant sEH (Homo sapiens, UniProt P34913)?
Result: competitive inhibitors
